Values from patent US20220112288A1

- system_name: T1, Rhesus macaque CD4-HIS (Acro Biosystems, Cat. CD4-C52H7) (rhesus macaque, UniProt P16003 26-390)
- T1 construct: Bought reagent; also called Rhesus CD4; rhesus CD4-HIS; not shown: His tag
- protocol_notes: BLI (Octet Red384); Ab on anti-mouse Fc (AMC) sensor; rhesus CD4-HIS 100/50/25 nM; global 1:1 fit;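 note: antibodies loaded at 10 µg/mL, an unrelated mouse-derived antibody served as internal reference, curves fit over association and dissociation phases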
The entries below come with measured koff values attached.
Record the value in s⁻¹, omitting the unit from your answer.

Solved cases below.
1) 75110_06E14A (antibody, V domains shown, Tested as antibody purified from AlivaMab Mouse hybridoma supernatant (human variable domains, kappa; mouse Fc, captured on anti-mouse IgG Fc sensors); also called ADS75110 purified AMM Ab) VH: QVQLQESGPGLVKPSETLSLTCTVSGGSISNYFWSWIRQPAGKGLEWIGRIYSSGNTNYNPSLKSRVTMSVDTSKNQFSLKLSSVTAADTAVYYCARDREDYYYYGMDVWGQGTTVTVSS VL: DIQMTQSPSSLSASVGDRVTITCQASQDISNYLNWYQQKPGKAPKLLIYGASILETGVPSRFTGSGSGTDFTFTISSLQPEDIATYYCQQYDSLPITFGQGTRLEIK; 0.00069
2) 75110_07H07A (antibody, V domains shown, Tested as antibody purified from AlivaMab Mouse hybridoma supernatant (human variable domains, kappa; mouse Fc, captured on anti-mouse IgG Fc sensors); also called ADS75110 purified AMM Ab) VH: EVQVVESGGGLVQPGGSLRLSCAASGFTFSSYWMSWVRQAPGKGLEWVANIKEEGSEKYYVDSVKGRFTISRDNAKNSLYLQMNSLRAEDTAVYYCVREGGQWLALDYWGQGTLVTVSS VL: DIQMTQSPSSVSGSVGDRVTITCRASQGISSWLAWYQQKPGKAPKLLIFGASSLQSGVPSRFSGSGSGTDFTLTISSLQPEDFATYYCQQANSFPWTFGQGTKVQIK; 0.003

Task: // lookup koff for 75110_08A13A (antibody, V domains shown, Tested as antibody purified from AlivaMab Mouse hybridoma supernatant (human variable domains, kappa; mouse Fc, captured on anti-mouse IgG Fc sensors); also called ADS75110 purified AMM Ab) VH: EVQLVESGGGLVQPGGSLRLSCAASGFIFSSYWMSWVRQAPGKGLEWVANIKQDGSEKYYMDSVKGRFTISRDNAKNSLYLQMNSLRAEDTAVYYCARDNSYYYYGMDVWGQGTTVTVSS VL: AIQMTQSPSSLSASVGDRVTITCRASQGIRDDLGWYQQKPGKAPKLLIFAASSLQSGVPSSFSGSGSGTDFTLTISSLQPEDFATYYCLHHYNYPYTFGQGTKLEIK
Output: 0.00098
